Each record here notes measured inhibition.
Biological target: Muscarinic acetylcholine receptor M1 (Mus musculus)
Sequence (whole entry): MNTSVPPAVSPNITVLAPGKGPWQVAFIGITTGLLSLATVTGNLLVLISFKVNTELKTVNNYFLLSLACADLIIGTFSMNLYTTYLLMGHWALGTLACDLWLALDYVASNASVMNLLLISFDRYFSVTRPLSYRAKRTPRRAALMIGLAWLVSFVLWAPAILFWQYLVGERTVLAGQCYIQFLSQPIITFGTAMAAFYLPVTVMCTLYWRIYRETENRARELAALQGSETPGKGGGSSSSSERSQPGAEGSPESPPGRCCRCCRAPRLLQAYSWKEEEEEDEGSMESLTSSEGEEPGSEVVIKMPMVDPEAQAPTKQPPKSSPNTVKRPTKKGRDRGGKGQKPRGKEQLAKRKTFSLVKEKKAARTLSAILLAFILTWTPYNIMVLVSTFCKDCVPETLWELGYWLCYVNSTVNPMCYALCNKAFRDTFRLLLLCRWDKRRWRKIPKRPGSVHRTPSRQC
Assay: Percent inhibition (high) of [3H](R)-QNB binding to Muscarinic acetylcholine receptor M1 expressed in A9 L cell line in the absence of 300 uM GTP-gamma-S
Type: cell-based
Conditions: A9L
Give just the numeric value; % need not be written.

INPUT: Give Muscarinic acetylcholine receptor M1 (Mus musculus) inhibition for COC(=O)C1CN=CNC1 (stereo unspecified)
OUTPUT: 23.5

INPUT: Missing value: inhibition, Muscarinic acetylcholine receptor M1 (Mus musculus), entry CC#CCOC(=O)C1CN=CNC1 (stereo unspecified) . Fill in?
OUTPUT: 23.4

INPUT: // map C#CCCOC(=O)C1CN=CNC1 (stereo unspecified) to recorded inhibition (system: Muscarinic acetylcholine receptor M1 (Mus musculus))
OUTPUT: 23.2

INPUT: Form: Entry = CCCC#Cc1noc(C2CN=CNC2)n1 (stereo unspecified) | System = Muscarinic acetylcholine receptor M1 (Mus musculus) | inhibition = ____
OUTPUT: 32.5

INPUT: What inhibition appears in the records for this compound with Muscarinic acetylcholine receptor M1 (Mus musculus)? C#CCOC(=O)C1CN=CNC1 (stereo unspecified)
OUTPUT: 31.5

The record that follows has no inhibition shown yet.
INPUT: What reported inhibition corresponds to Cc1noc(C2CN=CNC2)n1 (stereo unspecified) on Muscarinic acetylcholine receptor M1 (Mus musculus)?
OUTPUT: 30.9

Source: ChEMBL document CHEMBL1129993
